Sourced from patent US6706740B2

tested on: Leptosphaeria nodorum—LEPTNO; assay: Glume Blotch of Wheat, in vivo whole plant, 24 Hour Protectant; conditions: Leptosphaeria; 100 ppm spray, 24 hour protectant, wheat; control of fungal infection vs untreated plants; read-out: LEPTNO in vivo 1 Day Protectant
Parameter: pest or weed control at 100 ppm. Scope: all listed entries.

{"Compound": "COc1ccnc(C(=O)NC2CCN(C(=O)c3ccccc3)CC2)c1O [Compound 308]", "pest or weed control at 100 ppm": "< 25%"}
{"Compound": "C[C@H](NC(=O)c1ncccc1O)c1cccc2ccccc12 [Compound 232]", "pest or weed control at 100 ppm": "< 25%"}
{"Compound": "O=C(OC1CCC(NC(=O)c2ncccc2O)CC1)c1ccccc1 (stereo not drawn) [Compound 211]", "pest or weed control at 100 ppm": "25 to 74%"}
{"Compound": "COc1ccnc(C(=O)NC2CC(C(F)(F)F)CC(C(F)(F)F)C2)c1O (stereo not drawn) [Compound 256]", "pest or weed control at 100 ppm": "25 to 74%"}
{"Compound": "COc1ccnc(C(=O)N[C@H]2CC(C)(C)[C@H](O)C(C)(C)C2)c1O [Compound 264]", "pest or weed control at 100 ppm": "< 25%"}
{"Compound": "Cc1ccnc(C(=O)Nc2ccc(Oc3cccc(C(F)(F)F)c3)cc2)c1O [Compound 238]", "pest or weed control at 100 ppm": "25 to 74%"}
{"Compound": "COc1ccnc(C(=O)N[C@H]2CC3OC2[C@H](C)[C@@H](OCc2ccccc2)[C@H]3C)c1O (stereo partly drawn) [Compound 321]", "pest or weed control at 100 ppm": "< 25%"}
{"Compound": "COc1ccnc(C(=O)NC2CC(C)(C)CC(C)(C)C2)c1O [Compound 250]", "pest or weed control at 100 ppm": "25 to 74%"}
{"Compound": "COc1ccnc(C(=O)N[C@H]2CC[C@@H](Oc3ccc(C(F)(F)F)cc3)CC2)c1O [Compound 271]", "pest or weed control at 100 ppm": "25 to 74%"}
{"Compound": "COc1ccnc(C(=O)N[C@@H]2CC3CC2[C@@H](C(=O)OCCc2ccccc2)[C@H]3C(=O)OCC(C)C)c1O (stereo partly drawn) [Compound 301]", "pest or weed control at 100 ppm": "25 to 74%"}
{"Compound": "COc1ccnc(C(=O)NC2COC3(CC(C)(C)CC(C)(C)C3)OC2)c1O [Compound 315]", "pest or weed control at 100 ppm": "25 to 74%"}
{"Compound": "COc1ccnc(C(=O)NC2CCN(C(=O)CCc3ccccc3)CC2)c1O [Compound 309]", "pest or weed control at 100 ppm": "25 to 74%"}
{"Compound": "Cc1cc(C)cc(NC(=O)c2ncccc2O)c1 [Compound 215]", "pest or weed control at 100 ppm": "< 25%"}
{"Compound": "COc1ccnc(C(=O)N[C@H]2CO[C@@](C)(C(C)CC3=C(C)CCCC3(C)C)OC2)c1O (stereo partly drawn) [Compound 318]", "pest or weed control at 100 ppm": "25 to 74%"}
{"Compound": "COc1ccnc(C(=O)NC2c3ccccc3CC2(C)C)c1O (stereo not drawn) [Compound 284]", "pest or weed control at 100 ppm": "25 to 74%"}
{"Compound": "COc1ccnc(C(=O)N[C@@H]2CCCC[C@H]2SC)c1O [Compound 273]", "pest or weed control at 100 ppm": "25 to 74%"}
{"Compound": "COc1ccnc(C(=O)NC2CC(C)(C)C=CC(C)C2C)c1O (stereo not drawn) [Compound 279]", "pest or weed control at 100 ppm": "25 to 74%"}
{"Compound": "COc1ccnc(C(=O)NC2CCc3ccccc3C2=O)c1O (stereo not drawn) [Compound 285]", "pest or weed control at 100 ppm": "25 to 74%"}

* * *

Let's look at some compounds and their measured pest or weed control at 100 ppm.
tested on: Septoria tritici—SEPTTR; assay: Leaf Blotch of Wheat, in vivo whole plant, 24 Hour Protectant; conditions: Zymoseptoria tritici, 24 h, wheat plants sprayed at 100 ppm, inoculated after 24 hours; control of fungal infection vs untreated plants; read-out: SEPTTR in vivo 1 Day Protectant
Measure name: pest or weed control at 100 ppm

{"Compound": "O=C(Nc1ccc(Oc2ccccc2C(F)(F)F)cc1)c1nc(Br)ccc1O [Compound 497]", "Tested target": "Septoria tritici—SEPTTR", "Test value": "25 to 74%"}
{"Compound": "COc1ccnc(C(=O)Nc2ccc(Oc3cccc(C(F)(F)F)n3)cc2)c1O [Compound 463]", "Tested target": "Septoria tritici—SEPTTR", "Test value": "25 to 74%"}
{"Compound": "CC(C)C(=O)O[C@H]1[C@H](C)OC(=O)[C@@H](NC(=O)c2nc3ccccc3cc2O)COC(=O)[C@@H]1Cc1ccccc1 [Compound 562]", "Tested target": "Septoria tritici—SEPTTR", "Test value": "25 to 74%"}
{"Compound": "CC(C)C(=O)O[C@H]1[C@H](C)OC(=O)[C@@H](NC(=O)c2nsnc2O)COC(=O)[C@@H]1Cc1ccccc1 [Compound 553]", "Tested target": "Septoria tritici—SEPTTR", "Test value": "25 to 74%"}
{"Compound": "CCOc1ccnc(C(=O)NC2COC(=O)[C@H](Cc3ccccc3)[C@@H](OC(=O)C(C)C)[C@H](C)OC2=O)c1O (some centres unmarked) [Compound 475]", "Tested target": "Septoria tritici—SEPTTR", "Test value": "25 to 74%"}
{"Compound": "COc1ccnc(C(=O)Nc2ccc(Oc3cc(C(F)(F)F)ccn3)cc2)c1O [Compound 461]", "Tested target": "Septoria tritici—SEPTTR", "Test value": "25 to 74%"}
{"Compound": "COc1ccc(C(C)NC(=O)c2nc(Br)ccc2O)cc1 (centres unmarked) [Compound 486]", "Tested target": "Septoria tritici—SEPTTR", "Test value": "< 25%"}
{"Compound": "C=C1COC(=O)[C@@H](NC(=O)c2nccc(OC)c2OC(C)=O)COC(=O)C1 [Compound 595]", "Tested target": "Septoria tritici—SEPTTR", "Test value": "< 25%"}
{"Compound": "CC(C)C(=O)O[C@H]1[C@H](C)OC(=O)[C@@H](NC(=O)c2nnc(O)nc2O)COC(=O)[C@@H]1Cc1ccccc1 [Compound 544]", "Tested target": "Septoria tritici—SEPTTR", "Test value": "25 to 74%"}
{"Compound": "Cc1ccnc(C(=O)N[C@H]2COC(=O)[C@H](Cc3ccccc3)[C@@H](OC(=O)C(C)C)[C@H](C)OC2=O)c1OC(=O)C(C)C [Compound 572]", "Tested target": "Septoria tritici—SEPTTR", "Test value": "25 to 74%"}
{"Compound": "CC1(C)CC(NC(=O)c2cn(-c3ccccc3)nc2O)CC(C)(C)C1 [Compound 559]", "Tested target": "Septoria tritici—SEPTTR", "Test value": "< 25%"}
{"Compound": "COc1ccnc(C(=O)Nc2ccc(Oc3ccc(C(F)(F)F)cc3)nc2)c1O [Compound 472]", "Tested target": "Septoria tritici—SEPTTR", "Test value": "25 to 74%"}
{"Compound": "COc1ccnc(C(=O)N[C@H]2CO[C@@H](C(C)Cc3ccc(C(C)(C)C)cc3)OC2)c1OC(C)=O (some centres unmarked) [Compound 593]", "Tested target": "Septoria tritici—SEPTTR", "Test value": "25 to 74%"}
{"Compound": "COc1ccnc(C(=O)NC(COC(=O)CCc2ccccc2)C(=O)OC(C)COC(=O)C(C)C)c1OC(C)=O (centres unmarked) [Compound 590]", "Tested target": "Septoria tritici—SEPTTR", "Test value": "25 to 74%"}
{"Compound": "CSc1nnc(C(=O)N[C@H]2COC(=O)[C@H](Cc3ccccc3)[C@@H](OC(=O)C(C)C)[C@H](C)OC2=O)c(O)n1 [Compound 547]", "Tested target": "Septoria tritici—SEPTTR", "Test value": "25 to 74%"}
{"Compound": "CC(NC(=O)c1ccncc1O)c1ccc(OC(F)(F)F)cc1 (centres unmarked) [Compound 511]", "Tested target": "Septoria tritici—SEPTTR", "Test value": "< 25%"}
{"Compound": "O=C(NC1CCCCC1)c1cccnc1O [Compound 515]", "Tested target": "Septoria tritici—SEPTTR", "Test value": "25 to 74%"}
{"Compound": "O=C(Nc1ccccc1Oc1cccc(C(F)(F)F)c1)c1nc(Br)ccc1O [Compound 492]", "Tested target": "Septoria tritici—SEPTTR", "Test value": "25 to 74%"}
{"Compound": "COC(=O)C(COC(=O)C(C)c1ccccc1)NC(=O)c1nccc(OC)c1OC(C)=O (centres unmarked) [Compound 581]", "Tested target": "Septoria tritici—SEPTTR", "Test value": "25 to 74%"}
{"Compound": "CSc1nnc(C(=O)NC2CCCCCCC2)c(O)n1 [Compound 546]", "Tested target": "Septoria tritici—SEPTTR", "Test value": "25 to 74%"}
{"Compound": "O=C(NCCc1ccc(Cl)cc1)c1cccnc1O [Compound 518]", "Tested target": "Septoria tritici—SEPTTR", "Test value": "< 25%"}
{"Compound": "COc1ccnc(C(=O)NC2CC(C)(C)CC(C)(C3CC3)C2)c1OC(C)=O (centres unmarked) [Compound 573]", "Tested target": "Septoria tritici—SEPTTR", "Test value": "25 to 74%"}
{"Compound": "CC1(C)CC(NC(=O)c2nnc(O)nc2O)CC(C)(C)C1 [Compound 543]", "Tested target": "Septoria tritici—SEPTTR", "Test value": "< 25%"}
{"Compound": "CCOc1ccnc(C(=O)NC2CC(C)(C)CC(C)(C)C2)c1O [Compound 474]", "Tested target": "Septoria tritici—SEPTTR", "Test value": "< 25%"}
{"Compound": "O=C(Nc1cccc(Oc2ccc(C(F)(F)F)cc2)c1)c1nc(Br)ccc1O [Compound 496]", "Tested target": "Septoria tritici—SEPTTR", "Test value": "25 to 74%"}
{"Compound": "Cn1cc(C(=O)NC2CC(C)(C)CC(C)(C)C2)c(O)n1 [Compound 557]", "Tested target": "Septoria tritici—SEPTTR", "Test value": "25 to 74%"}
{"Compound": "CC1(C)CC(NC(=O)c2cnccc2O)CC(C)(C)C1 [Compound 502]", "Tested target": "Septoria tritici—SEPTTR", "Test value": "25 to 74%"}
{"Compound": "CC1(C)CC(NC(=O)c2nccnc2O)CC(C)(C)C1 [Compound 533]", "Tested target": "Septoria tritici—SEPTTR", "Test value": "25 to 74%"}
{"Compound": "CSc1ccnc(C(=O)Nc2ccc(Oc3cccc(C(F)(F)F)c3)cc2)c1O [Compound 479]", "Tested target": "Septoria tritici—SEPTTR", "Test value": "25 to 74%"}
{"Compound": "CCCCCc1ccc(C(C)NC(=O)c2nc(Br)ccc2O)cc1 (centres unmarked) [Compound 489]", "Tested target": "Septoria tritici—SEPTTR", "Test value": "< 25%"}
{"Compound": "COc1ccnc(C(=O)NC2CC(C)(C)/C=C\\CC(C)(C)C2)c1OC(C)=O (centres unmarked) [Compound 580]", "Tested target": "Septoria tritici—SEPTTR", "Test value": "25 to 74%"}
{"Compound": "O=C(Nc1cccc(Oc2ccccc2C(F)(F)F)c1)c1nc(Br)ccc1O [Compound 494]", "Tested target": "Septoria tritici—SEPTTR", "Test value": "25 to 74%"}
{"Compound": "COc1ccnc(C(=O)Nc2ccc(Oc3cc(Cl)nc(C(F)(F)F)c3)cc2)c1O [Compound 467]", "Tested target": "Septoria tritici—SEPTTR", "Test value": "25 to 74%"}
{"Compound": "O=C(Nc1ccc(Oc2cccc(C(F)(F)F)c2)cc1)c1nc(Br)ccc1O [Compound 498]", "Tested target": "Septoria tritici—SEPTTR", "Test value": "25 to 74%"}
{"Compound": "O=C(Nc1ccc(Oc2ccc(C(F)(F)F)cc2)cc1)c1nc(Br)ccc1O [Compound 499]", "Tested target": "Septoria tritici—SEPTTR", "Test value": "< 25%"}
